Data credit: the supplement of paper PMC10567573

- test protocol: protein stability index of a GFP-peptide fusion (GPS, HEK-293T) (PSI 1-6); higher = more stable;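 also: 24-mer peptide tiles fused after GFP, lentivirally expressed, FACS-sorted into six equal bins by GFP/DsRed ratio, decoded by Illumina sequencing, PSI is the read-weighted mean bin number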
- assay setup: treatment: MLN4924 1 uM, 8 h; c terminus: a fixed tail appended
Everything with protein stability index lower than 3 is criterion not met; everything else, including exactly 3, is criterion met.

input: Is the recorded value of protein stability index equal to or greater than 3 for this sequence? RGEALGLVGAQAPATEEQEAASSS [MAGEA3]
output: criterion met

input: Is the recorded value of protein stability index equal to or greater than 3 for this sequence? SSAVYFAEADEPTTHFQSIPDAFW [KCNA4]
output: criterion not met

input: Is the recorded value of protein stability index equal to or greater than 3 for this sequence? LLQSFHGHGADVLCLDLAPSETGN [GNB5]
output: criterion met

input: Is the recorded value of protein stability index equal to or greater than 3 for this sequence? EAVKYYTLEEIQKHNHSKSTWLIL [CYB5A]
output: criterion not met

input: Is the recorded value of protein stability index equal to or greater than 3 for this sequence? HRRFCELLPQEQRSVESSLRAQVP [CIB1]
output: criterion met

input: Is the recorded value of protein stability index equal to or greater than 3 for this sequence? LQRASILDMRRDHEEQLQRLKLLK [FBF1]
output: criterion met

input: Is the recorded value of protein stability index equal to or greater than 3 for this sequence? QDDLTVVLNEEGICTQKCALNWTD [VPS39]
output: criterion met

input: Is the recorded value of protein stability index equal to or greater than 3 for this sequence? ILTFLRAGKLRLLREMCALSFQEE [KCNG1]
output: criterion not met

input: Is the recorded value of protein stability index equal to or greater than 3 for this sequence? ERPYGCDECEKAYFYMSCLVKHKR [ZNF649]
output: criterion not met

input: Is the recorded value of protein stability index equal to or greater than 3 for this sequence? VDDHTPWVKGSVPPPLDQYVKFDA [CLPTM1]
output: criterion met

input: Is the recorded value of protein stability index equal to or greater than 3 for this sequence? MEAYLPKKNGLYLSLVLGNVNVTL [TMEM120A]
output: criterion met

input: Is the recorded value of protein stability index equal to or greater than 3 for this sequence? SDLFRLQEYNIPGVIQSVIGWKTV [CDS2]
output: criterion not met

input: Is the recorded value of protein stability index equal to or greater than 3 for this sequence? PGNPSLHSRFVELSEAYRVLSREQ [DNAJC4]
output: criterion met

input: Is the recorded value of protein stability index equal to or greater than 3 for this sequence? MPNVMTGTMGMAPLGNTPMMNQSM [CLINT1]
output: criterion met

input: Is the recorded value of protein stability index equal to or greater than 3 for this sequence? NWIVPGKFLAFSGPHPKSKIENGY [CDC14A]
output: criterion not met

input: Is the recorded value of protein stability index equal to or greater than 3 for this sequence? DLEAQMESLKEELLSLKQNHEQEV [KRT33B]
output: criterion met

input: Is the recorded value of protein stability index equal to or greater than 3 for this sequence? HMLLNTTLNIKETDSKELSMAKEV [ZBED1]
output: criterion met

input: Is the recorded value of protein stability index equal to or greater than 3 for this sequence? AAPEGKRSLANGPNAGEQPGQVAG [EID1]
output: criterion met

input: Is the recorded value of protein stability index equal to or greater than 3 for this sequence? SVLSACDNLSDLVMVRWNKSLEWS [IQUB]
output: criterion not met

input: Is the recorded value of protein stability index equal to or greater than 3 for this sequence? PVNPELTAGPITGLVYRLNRFRVE [TRIM43]
output: criterion not met

input: Is the recorded value of protein stability index equal to or greater than 3 for this sequence? VSFEDPEFKSSFSQSFSLYVKYQV [ATE1]
output: criterion not met

input: Is the recorded value of protein stability index equal to or greater than 3 for this sequence? HLEVKFMNPYNAVLTKKFQVTMRG [FBXO39]
output: criterion not met

input: Is the recorded value of protein stability index equal to or greater than 3 for this sequence? YLTEGLLQFTILLSLIGVRVDVDT [NFE2L1]
output: criterion met

input: Is the recorded value of protein stability index equal to or greater than 3 for this sequence? TLALILQIPTQNTQARQVMEREFN [PPFIA4]
output: criterion not met

input: Is the recorded value of protein stability index equal to or greater than 3 for this sequence? GHGADVLCLDLAPSETGNTFVSGG [GNB5]
output: criterion met

input: Is the recorded value of protein stability index equal to or greater than 3 for this sequence? ITCLTCQGTGYIPTEQVNELVALI [TMEM106C]
output: criterion not met

input: Is the recorded value of protein stability index equal to or greater than 3 for this sequence? DLVKKIRDFHRKILTLPEMMRMFS [TRIM15]
output: criterion not met
